Each recorded value in this set is attributed to patent US20070224645A1.

# Tested on: PDE IV
# MEASUREMENT_PROTOCOL: Cell-based PDE assay in ACTOne-IRES-A2b#2 cell line with ACTOne Membrane Potential dye, no external cAMP stimulation
# CONDITION_SET: ACTOne-IRES-A2b#2 cell line (HEK293-CNG overexpressing human adenosine A2b receptor); readings before and 30 minutes after compound addition
ASSAY_METRIC: detection of PDE inhibitor activity (dose response, fluorescence intensity)

Some molecules with recorded detection of PDE inhibitor activity (dose response, fluorescence intensity):
COCc1nc2c([nH]1)c(=O)n(C)c(=O)n2CC(C)C :: negative signals
CCCCOc1cc(CC2CNC(=O)N2)ccc1OC (stereo not drawn) :: detected
CCCOc1ccccc1-c1nc2nn[nH]c2c(=O)[nH]1 :: negative signals
C[C@@H]1C(=O)NC2=Nc3cccc(Cl)c3CN21 :: negative signals
CCOC(=O)c1cnc2c(cnn2CC)c1NN=C(C)C.Cl [Etazolate] :: detected

Prompt: Report detection of PDE inhibitor activity (dose response, fluorescence intensity) for COc1ccc(C2CNC(=O)C2)cc1OC1CCCC1 (stereo not drawn) tested on PDE IV.
Response: detected
